# target.desc: hP2X7 (Homo sapiens)
# Sequence (Q99572 whole entry): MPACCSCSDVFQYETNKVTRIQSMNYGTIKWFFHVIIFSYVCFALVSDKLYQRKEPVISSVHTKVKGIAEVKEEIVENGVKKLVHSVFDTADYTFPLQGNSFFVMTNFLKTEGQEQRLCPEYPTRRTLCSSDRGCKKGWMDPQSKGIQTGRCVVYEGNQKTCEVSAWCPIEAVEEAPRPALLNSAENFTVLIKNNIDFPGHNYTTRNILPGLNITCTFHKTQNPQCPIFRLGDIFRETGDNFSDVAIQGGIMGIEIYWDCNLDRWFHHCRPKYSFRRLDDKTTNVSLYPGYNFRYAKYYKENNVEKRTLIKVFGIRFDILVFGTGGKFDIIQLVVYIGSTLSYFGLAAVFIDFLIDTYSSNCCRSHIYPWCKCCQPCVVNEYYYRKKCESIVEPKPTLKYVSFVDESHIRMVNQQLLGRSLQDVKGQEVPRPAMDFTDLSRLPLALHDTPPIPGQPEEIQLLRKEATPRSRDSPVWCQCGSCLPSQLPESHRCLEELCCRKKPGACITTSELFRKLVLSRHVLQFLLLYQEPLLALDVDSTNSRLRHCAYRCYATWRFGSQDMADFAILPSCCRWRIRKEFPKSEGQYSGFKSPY
# test.description: TEVC inhibition dose-response (IC50), hP2X7 in Xenopus laevis oocytes
# Type: cell-based
# Set-up: hP2X4-WT, and hP2X7-WT constructs used for electrophysiology are similarly unmodified full-length, wild-type receptor constructs; expressed in transfected cells; host or cells: Xenopus laevis oocytes injected with mRNA made from pcDNA3.1x
# applied.conditions: 100 μM ATP, mean ± SD, triplicate
endpoint.name: IC50 (µM)
Express the result in µM but write the number alone.

Please list IC50 recorded for the molecule O=S(=O)(O)c1ccc(N=C2C=CC(=C(c3ccc(Nc4ccc(S(=O)(=O)O)cc4)cc3)c3ccc(Nc4ccc(S(=O)(=O)O)cc4)cc3)C=C2)cc1 [methyl blue]
4

---

# target.desc: rP2X7 (Rattus norvegicus, UniProt Q64663)
# test.description: TEVC recovery of current after complete inhibition (IC100), rP2X7
# applied.conditions: rP2X7, 40-s IC100 application, 120 s buffer wash, 100 μM ATP
endpoint.name: Recovery of activation (% of baseline current) (%)
Express the result in % but write the number alone.

Sample records with Recovery of activation (% of baseline current):
Clc1cccc(-n2nnnc2NCc2ccccc2Oc2ccccn2)c1Cl [A839977]; 67
O=S(=O)(O)c1ccc(N=C2C=CC(=C(c3ccc(Nc4ccc(S(=O)(=O)O)cc4)cc3)c3ccc(Nc4ccc(S(=O)(=O)O)cc4)cc3)C=C2)cc1 [methyl blue]; 53
Clc1cccc(-c2nnnn2Cc2cccnc2)c1Cl [A438079]; 81

Please list Recovery of activation (% of baseline current) recorded for the compound CN1C(=O)CC[C@H]1C(=O)NCc1cccc(C(F)(F)F)c1Cl [GSK1482160]
69

Please list Recovery of activation (% of baseline current) recorded for the compound O=C(NCC1(N2CCN(c3ccccc3)CC2)CCOCC1)c1cccnc1Sc1ccccc1 [JNJ47965567]
1.4

Please list Recovery of activation (% of baseline current) recorded for the compound O=C(NCC12CC3CC(CC(C3)C1)C2)c1cc(CCCNCCCO)ccc1Cl [AZD9056]
82

---

# target.desc: hP2X1 (Homo sapiens)
# Construct: The hP2X1-WT, hP2X2-WT, hP2X3-WT, hP2X4-WT, and hP2X7-WT constructs used for electrophysiology are similarly unmodified full-length, wild-type receptor constructs
# Sequence (P51575 whole entry): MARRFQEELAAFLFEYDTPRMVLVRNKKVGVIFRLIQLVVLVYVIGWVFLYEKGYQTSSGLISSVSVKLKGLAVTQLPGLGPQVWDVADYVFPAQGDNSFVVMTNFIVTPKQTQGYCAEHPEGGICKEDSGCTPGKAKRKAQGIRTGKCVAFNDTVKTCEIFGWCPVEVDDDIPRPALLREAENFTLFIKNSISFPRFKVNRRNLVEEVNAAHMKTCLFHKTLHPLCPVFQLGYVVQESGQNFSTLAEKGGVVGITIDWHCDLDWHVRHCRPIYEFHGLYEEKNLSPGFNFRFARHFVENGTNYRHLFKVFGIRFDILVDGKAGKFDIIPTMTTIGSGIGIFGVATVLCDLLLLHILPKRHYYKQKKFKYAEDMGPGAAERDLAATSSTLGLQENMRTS
# test.description: TEVC inhibition dose-response (IC50), hP2X1 in Xenopus laevis oocytes
# applied.conditions: 10 μM ATP, mean ± SD, triplicate
endpoint.name: IC50
I'd appreciate it if you wrote the number followed by its unit.

Please list IC50 recorded for the compound O=S(=O)(O)c1ccc(N=C2C=CC(=C(c3ccc(Nc4ccc(S(=O)(=O)O)cc4)cc3)c3ccc(Nc4ccc(S(=O)(=O)O)cc4)cc3)C=C2)cc1 [methyl blue]
400 nM

---

# target.desc: rP2X7-F88A (Rattus norvegicus, UniProt Q64663, F88A)
# Sequence (Q64663 1-595 F88A): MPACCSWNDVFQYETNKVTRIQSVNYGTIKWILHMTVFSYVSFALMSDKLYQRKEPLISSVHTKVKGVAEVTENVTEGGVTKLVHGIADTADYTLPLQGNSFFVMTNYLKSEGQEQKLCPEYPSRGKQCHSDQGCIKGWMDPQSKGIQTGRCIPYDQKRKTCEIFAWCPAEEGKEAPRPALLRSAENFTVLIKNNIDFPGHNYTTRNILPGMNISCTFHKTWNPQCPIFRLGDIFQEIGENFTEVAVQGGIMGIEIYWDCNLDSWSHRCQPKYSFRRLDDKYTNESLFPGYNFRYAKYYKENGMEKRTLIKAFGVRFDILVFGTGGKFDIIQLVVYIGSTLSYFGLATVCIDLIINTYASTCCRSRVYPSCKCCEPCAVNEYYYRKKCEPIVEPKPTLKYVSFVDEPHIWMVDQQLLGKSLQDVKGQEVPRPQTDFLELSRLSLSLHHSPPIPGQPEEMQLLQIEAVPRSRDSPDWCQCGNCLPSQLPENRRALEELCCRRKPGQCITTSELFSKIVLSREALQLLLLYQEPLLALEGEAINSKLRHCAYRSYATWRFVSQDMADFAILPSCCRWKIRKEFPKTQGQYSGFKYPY
# test.description: TEVC inhibition dose-response, rP2X7-F88A mutant
# applied.conditions: read-out: IC50 (inhibitory potency), F88A
In this section, each of the molecules is paired with its reported pIC50.
// field semantics: pIC50 = negative decimal log of concentration (mol/L)

Sample records with pIC50:
O=S(=O)(O)c1ccc(N=C2C=CC(=C(c3ccc(Nc4ccc(S(=O)(=O)O)cc4)cc3)c3ccc(Nc4ccc(S(=O)(=O)O)cc4)cc3)C=C2)cc1 [methyl blue]; 5.30
O=C(NCC12CC3CC(CC(C3)C1)C2)c1cc(CCCNCCCO)ccc1Cl [AZD9056]; 6.89
CN1C(=O)CC[C@H]1C(=O)NCc1cccc(C(F)(F)F)c1Cl [GSK1482160]; 4.89
Clc1cccc(-n2nnnc2NCc2ccccc2Oc2ccccn2)c1Cl [A839977]; 5.72
Clc1cccc(-c2nnnn2Cc2cccnc2)c1Cl [A438079]; 4.85

// moving on: another record for pIC50
Please list pIC50 recorded for the molecule O=C(NCC1(N2CCN(c3ccccc3)CC2)CCOCC1)c1cccnc1Sc1ccccc1 [JNJ47965567]
6.10

---

# target.desc: rP2X7 (Rattus norvegicus, UniProt Q64663)
# test.description: TEVC recovery of current after complete inhibition (IC100), rP2X7
# applied.conditions: rP2X7, 120-s IC100 application, 120 s buffer wash, 100 μM ATP
In this section, each of the compounds is paired with its reported Recovery of activation (% of baseline current).
Express the result in % but write the number alone.

Sample records with Recovery of activation (% of baseline current):
Clc1cccc(-n2nnnc2NCc2ccccc2Oc2ccccn2)c1Cl [A839977]; 6.7
O=S(=O)(O)c1ccc(N=C2C=CC(=C(c3ccc(Nc4ccc(S(=O)(=O)O)cc4)cc3)c3ccc(Nc4ccc(S(=O)(=O)O)cc4)cc3)C=C2)cc1 [methyl blue]; 15
O=C(NCC1(N2CCN(c3ccccc3)CC2)CCOCC1)c1cccnc1Sc1ccccc1 [JNJ47965567]; 1.6
Clc1cccc(-c2nnnn2Cc2cccnc2)c1Cl [A438079]; 48
O=C(NCC12CC3CC(CC(C3)C1)C2)c1cc(CCCNCCCO)ccc1Cl [AZD9056]; 47

// moving on: another record for Recovery of activation (% of baseline current)
Provide the reported Recovery of activation (% of baseline current) (system: rP2X7 (Rattus norvegicus, UniProt Q64663)) for CN1C(=O)CC[C@H]1C(=O)NCc1cccc(C(F)(F)F)c1Cl [GSK1482160]
45

---

# target.desc: hP2X2 (Homo sapiens)
# Construct: The hP2X1-WT, hP2X2-WT, hP2X3-WT, hP2X4-WT, and hP2X7-WT constructs used for electrophysiology are similarly unmodified full-length, wild-type receptor constructs
# Sequence (Q9UBL9 whole entry): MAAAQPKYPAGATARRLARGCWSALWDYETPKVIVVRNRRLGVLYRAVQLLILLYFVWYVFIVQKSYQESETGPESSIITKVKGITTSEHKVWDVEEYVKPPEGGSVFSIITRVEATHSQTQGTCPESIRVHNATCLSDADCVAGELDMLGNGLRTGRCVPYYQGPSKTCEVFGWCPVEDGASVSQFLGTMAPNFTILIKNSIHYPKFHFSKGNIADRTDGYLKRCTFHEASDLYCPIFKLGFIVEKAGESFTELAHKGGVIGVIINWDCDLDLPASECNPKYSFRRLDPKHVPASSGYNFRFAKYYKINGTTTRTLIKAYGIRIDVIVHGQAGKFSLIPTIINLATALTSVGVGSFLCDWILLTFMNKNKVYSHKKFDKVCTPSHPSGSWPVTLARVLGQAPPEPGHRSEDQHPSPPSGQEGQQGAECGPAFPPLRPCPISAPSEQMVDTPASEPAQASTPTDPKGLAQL
# test.description: TEVC inhibition dose-response (IC50), hP2X2 in Xenopus laevis oocytes
# applied.conditions: 10 μM ATP, mean ± SD, triplicate
endpoint.name: pIC50
// field semantics: pIC50 = negative decimal log of concentration (mol/L)

Please list pIC50 recorded for the molecule O=S(=O)(O)c1ccc(N=C2C=CC(=C(c3ccc(Nc4ccc(S(=O)(=O)O)cc4)cc3)c3ccc(Nc4ccc(S(=O)(=O)O)cc4)cc3)C=C2)cc1 [methyl blue]
4.89

---

# target.desc: hP2X4 (Homo sapiens, UniProt Q99571)
# Sequence (Q99571 1-388): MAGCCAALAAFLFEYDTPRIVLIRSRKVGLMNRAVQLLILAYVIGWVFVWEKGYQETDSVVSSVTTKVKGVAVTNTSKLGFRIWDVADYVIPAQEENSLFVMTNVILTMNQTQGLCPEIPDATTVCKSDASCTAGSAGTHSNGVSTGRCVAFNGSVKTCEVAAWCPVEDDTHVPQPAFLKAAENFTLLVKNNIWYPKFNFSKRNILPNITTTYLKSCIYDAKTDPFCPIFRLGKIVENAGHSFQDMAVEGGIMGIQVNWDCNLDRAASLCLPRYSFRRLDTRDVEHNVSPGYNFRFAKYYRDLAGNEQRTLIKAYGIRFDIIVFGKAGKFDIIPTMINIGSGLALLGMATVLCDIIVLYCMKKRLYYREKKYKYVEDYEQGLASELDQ
# test.description: TEVC inhibition dose-response (IC50), hP2X4 in Xenopus laevis oocytes
# Type: cell-based
# applied.conditions: 50 μM ATP, mean ± SD, triplicate
endpoint.name: pIC50
// field semantics: pIC50 = negative decimal log of concentration (mol/L)

Please list pIC50 recorded for the molecule O=S(=O)(O)c1ccc(N=C2C=CC(=C(c3ccc(Nc4ccc(S(=O)(=O)O)cc4)cc3)c3ccc(Nc4ccc(S(=O)(=O)O)cc4)cc3)C=C2)cc1
4.29

---

# target.desc: rP2X7 (Rattus norvegicus, UniProt Q64663)
# test.description: Bio-layer interferometry (BLI), biotinylated rP2X7 on streptavidin biosensors, 2:1 Langmuir fit
# Assay type: binding
# applied.conditions: read-out: KD2 (low-affinity binding component), 2:1 Langmuir model, 30°C, PBS pH 7.4 with 0.5 mM DDM, ratio of kd to ka
endpoint.name: pKd
// field semantics: pKd = negative decimal log of concentration (mol/L)

Please list pKd recorded for the molecule O=S(=O)(O)c1ccc(N=C2C=CC(=C(c3ccc(Nc4ccc(S(=O)(=O)O)cc4)cc3)c3ccc(Nc4ccc(S(=O)(=O)O)cc4)cc3)C=C2)cc1
5.82
